The reported numbers originate from patent US20260209325A1.

- TEST_TARGET: T1, murine pro-myostatin (mouse, UniProt O08689 25-376, biotinylated (in the SPR assay))
- T1 construct: also called proGDF8 (mouse); mouse pro-myostatin
- EXPERIMENT_DESCRIPTION: SPR Biacore 8K, biotin-antigen captured
Below: a set of entries, each annotated with reported kon.

>  <BINDER>
Ab125 (antibody, human IgG4 S228P, kappa, V domains shown) VH: EVQLVQSGAEVKKPGESLKISCKGSGNRISDYWMNWVRQVPGKGLEWMGNIYPGYSDATYNRKFKGQVTISADKSISTAYLQWSSLKASDTAIYYCARGRDGYNYFAAFDIWGQGTMVTVSS VL: EIVLTQSPATLSLSPGERATLSCRASQSVASSYLAWYQQKPGQAPRLLIYDTSSRAAGIPARFSGSGSGTDFTLTISSLEPEDFAVYYCHQYGSSLTTFGGGTKVEIKR

>  <kon>
3.29e+06 M⁻¹ s⁻¹

$$$$
>  <BINDER>
Ab108 (antibody, human IgG4 S228P, kappa, V domains shown) VH: EVQLVESGGGLVQPGGSLRLSCAASGSAFSSYGMSWVRQAPGKGLELVASINSNGGSTYYPDSVKGRFTISRDNAKNSLYLQMNSLRAEDTAVYYCARDLLVGFLQWSHYYGMDVWGQGTTVTVSS VL: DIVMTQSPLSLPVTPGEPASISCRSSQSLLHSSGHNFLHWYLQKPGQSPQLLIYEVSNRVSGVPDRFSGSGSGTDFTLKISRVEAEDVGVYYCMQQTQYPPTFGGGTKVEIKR

>  <kon>
8.42e+06 M⁻¹ s⁻¹

$$$$
>  <BINDER>
Ab107 (antibody, human IgG4 S228P, kappa, V domains shown) VH: EVQLVESGGGLVQPGGSLRLSCAASGSAFSSYGMSWVRQAPGKGLELVASINSNGGSTYYPDSVKGRFTISRDNAKNSLYLQMNSLRAEDTAVYYCARDQLVRFLEWSHYYGMDVWGQGTTVTVSS VL: DIVMTQSPLSLPVTPGEPASISCRSSQSLLHSSGHNFLHWYLQKPGQSPQLLIYAGSNRPSGVPDRFSGSGSGTDFTLKISRVEAEDVGVYYCAHATQLPHTFGGGTKVEIKR

>  <kon>
8.04e+06 M⁻¹ s⁻¹

$$$$
